target: monoclonal antibody MV-001; test: ELISA, peptide-BSA coated, MV-001; conditions: scale: code
Reported endpoint: Binding Capacity
Answers are plain numbers.

> print(dat)
             binder  reported.endpoint  endpoint.result
1  AYFPHTSC [p4751]   Binding Capacity                2
2    HEFRHC [p4803]   Binding Capacity                3
3  IGFRHDSC [p4742]   Binding Capacity                2
4  NELFKHFC [p4727]   Binding Capacity                2
5  QSEFKHWC [p4738]   Binding Capacity                3

Would you mind giving Binding Capacity for every binder in the list below?
1. APIQFRHC [p4750]
2. AANYFPRC [p4706]
3. SSSFFPRC [p4708]

Result:
1: 3; 2: 2; 3: 2
